molecular target: Leukotriene B4 receptor 1 (Homo sapiens); experiment: Compound was tested for inhibitory activity against human neutrophil LTB4 receptor binding
Sequence (Q15722 whole entry): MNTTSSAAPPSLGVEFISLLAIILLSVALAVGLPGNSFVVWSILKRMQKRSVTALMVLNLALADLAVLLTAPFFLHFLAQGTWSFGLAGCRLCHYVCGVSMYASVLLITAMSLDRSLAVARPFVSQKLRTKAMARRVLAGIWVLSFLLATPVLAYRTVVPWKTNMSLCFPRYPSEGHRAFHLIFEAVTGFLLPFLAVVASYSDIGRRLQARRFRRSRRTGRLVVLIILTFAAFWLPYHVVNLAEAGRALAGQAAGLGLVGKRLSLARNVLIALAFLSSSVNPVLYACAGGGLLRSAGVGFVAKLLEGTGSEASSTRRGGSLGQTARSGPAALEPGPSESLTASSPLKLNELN
observed_property: pKi
Note on units: pKi is unitless, being -log10 of a concentration expressed in mol/L.

Entry `CCCc1c(OCCCOc2cc(O)c(-c3ccc(F)cc3)cc2CC)cccc1Oc1ccccc1C(=O)O` : reported pKi = ?
7.60

###

molecular target: Leukotriene B4 receptor 1 (Homo sapiens); test: Compound was tested for inhibitory activity against human neutrophil LTB4 receptor binding
Some molecules, each annotated with its measured pIC50.
Expect pIC50 as a plain number equal to -log10 of the molar concentration.

                                   molecule  observed_property  numeric_result
0  CCCc1c(OCCCOc2ccc(C(=O)NC)c(OC)c2CC2CC2)ccc2c1OC(CCC(=O)O)CC2 (configuration not stated)              pIC50            8.82

Quick check: pIC50 on Leukotriene B4 receptor 1 (Homo sapiens), item `CCCc1c(OCCCOc2ccc(C(=O)NC)c(OC)c2CC2CC2)ccc2c1O[C@H](CCC(=O)O)CC2` ?
8.89
